- targetOrSystem: human D3 receptor (Homo sapiens)
- Construct: (Natick, Mass., USA); host or cells: CCL 1.3 mouse fibroblasts
- assayNotes: D3 binding assay (125I-iodosulpiride, cloned human D3 receptor-expressing CCL 1.3 mouse fibroblasts)
- runConditions: ratio D2 (3H-spiperone) to D3 (125I-sulpiride)
- Method: Cloned human D3 receptor-expressing CCL 1.3 mouse fibroblasts obtained from Res. Biochemicals Internat. One Strathmore Rd., Natick, Mass. 01760-2418 USA, were used for the binding studies. The D3 -expressing cells were grown in RPMI-1640 containing 10% fetal calf serum (GIBCO No. 041-32400 N); 100 U/ml penicillin and 0.2% streptomycin (GIBCO BRL, Gaithersburg, Md., USA). […] The Ki values were determined by non-linear regression analysis using the LIGAND program.
readoutName: Selectivity Ki D2 /Ki D3

>>> df
                                   compound  quantitativeresult
0  Nc1nnc(SCCCN2CCN(c3cc(Cl)cc(Cl)c3)CC2)s1                  41

[P] Nc1nnc(CCCCCCN2CCN(c3cccc(C(F)(F)F)c3)CC2)s1
[Q] Nc1nnc(SCCCN2CCN(c3cccc(C(F)(F)F)n3)CC2)s1
**Query** When the recorded Selectivity Ki D2 /Ki D3 values are compared, which is smaller: that of P or that of Q ? Respond using the label that marks the chosen record.
**Result** Q
(Q: 31, P: 46)

----------
As an illustration, consider measured Ki for molecules on human D3 receptor (Homo sapiens, UniProt P35462).
Sequence (P35462 whole entry): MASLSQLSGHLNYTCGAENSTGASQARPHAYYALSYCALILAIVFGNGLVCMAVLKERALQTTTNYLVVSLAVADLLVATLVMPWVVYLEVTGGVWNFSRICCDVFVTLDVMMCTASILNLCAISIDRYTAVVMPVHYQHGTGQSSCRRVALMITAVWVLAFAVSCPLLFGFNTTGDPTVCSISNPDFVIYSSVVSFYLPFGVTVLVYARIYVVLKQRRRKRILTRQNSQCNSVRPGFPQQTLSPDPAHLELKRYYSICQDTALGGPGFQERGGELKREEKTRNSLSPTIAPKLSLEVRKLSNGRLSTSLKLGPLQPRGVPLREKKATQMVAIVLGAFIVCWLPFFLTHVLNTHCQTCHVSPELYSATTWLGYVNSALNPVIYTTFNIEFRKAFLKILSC
readoutName: Ki (nM)

[1] Cc1cc(N2CCN(CCCSc3nnc(N)s3)CC2)nc(-n2cccc2)n1 [Example 56]
[2] Nc1nnc(SCCCN2CCN(c3cc(Cl)cc(Cl)c3)CC2)s1 [Example 13]
**Query** Select one: 1 or 2 . Criterion: greater recorded Ki. Respond using the label that marks the chosen record.
**Result** 1
(1: 27 nM, 2: 0.6 nM)

----------
- targetOrSystem: D2 receptor (Bos taurus, UniProt P20288)
- Construct: Nucleus caudatus was removed from bovine brain
- Sequence (P20288 whole entry): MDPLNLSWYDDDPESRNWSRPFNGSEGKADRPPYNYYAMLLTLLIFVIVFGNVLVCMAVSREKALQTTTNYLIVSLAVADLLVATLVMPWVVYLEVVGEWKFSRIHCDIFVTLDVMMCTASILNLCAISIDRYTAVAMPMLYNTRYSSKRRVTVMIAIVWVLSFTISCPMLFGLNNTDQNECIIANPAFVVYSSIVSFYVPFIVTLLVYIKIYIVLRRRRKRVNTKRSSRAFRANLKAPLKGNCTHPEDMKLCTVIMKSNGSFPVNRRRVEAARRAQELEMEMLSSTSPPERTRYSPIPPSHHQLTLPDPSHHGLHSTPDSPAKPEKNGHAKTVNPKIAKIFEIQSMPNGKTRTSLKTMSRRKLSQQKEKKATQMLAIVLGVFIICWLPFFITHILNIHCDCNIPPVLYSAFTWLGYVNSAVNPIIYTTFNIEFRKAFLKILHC
- assayNotes: D2 binding assay (3H-spiperone, D2low, bovine nucleus caudatus membranes)
- runConditions: 0.2 nmol/l 3H-spiperone (D2low), 25° C., 60 min
readoutName: Ki (nM)

[a] Cc1cc(N2CCN(CCCSc3nnc(N)s3)CC2)nc(-n2cccc2)n1
[b] Nc1nnc(SCCCN2CCN(c3cccc(C(F)(F)F)n3)CC2)s1
[c] N#Cc1cccc(N2CCN(CCCCCCCCSc3nnc(N)s3)CC2)c1
[d] Nc1nnc(CCCCCCN2CCN(c3cccc(C(F)(F)F)c3)CC2)s1
[e] Nc1nnc(SCCCN2CCN(c3cc(Cl)cc(Cl)c3)CC2)s1
**Query** Order all 5 entries above by recorded Ki, highest first, lowest last. Field: ranking. Enter the labels in the order requested.
**Result** a, c, b, d, e
(a: 3500 nM, c: 500 nM, b: 200 nM, d: 65 nM, e: 25 nM)

----------
- targetOrSystem: human D3 receptor (Homo sapiens, UniProt P35462)
- Construct: (Natick, Mass., USA); host or cells: CCL 1.3 mouse fibroblasts
- assayNotes: D3 binding assay (125I-iodosulpiride, cloned human D3 receptor-expressing CCL 1.3 mouse fibroblasts)
- runConditions: ratio D2 (3H-spiperone) to D3 (125I-sulpiride)
readoutName: Selectivity Ki D2 /Ki D3

Here's what some known entries look like.
>>> print(df.to_string())
                                   compound                            targetorsystem  quantitativeresult
0  Cc1cc(N2CCN(CCCSc3nnc(N)s3)CC2)nc(-n2cccc2)n1 [Example 56]  human D3 receptor (Homo sapiens, UniProt P35462)                  70
1  CC(C)(C)c1cc(N2CCN(CCCSc3nnc(N)s3)CC2)nc(C(C)(C)C)n1 [Example 58]  human D3 receptor (Homo sapiens, UniProt P35462)                 132
2  N#Cc1cccc(N2CCN(CCCCCCCCSc3nnc(N)s3)CC2)c1 [Example 51]  human D3 receptor (Homo sapiens, UniProt P35462)                  62

[a] CC(CSc1nnc(N)s1)CN1CCN(c2cccc(C(F)(F)F)c2)CC1 (stereo not drawn) [Example 16]
[b] CC(C)c1cccc(N2CCN(CCCCCCCSc3nnc(N)s3)CC2)c1 [Example 49]
**Query** When the recorded Selectivity Ki D2 /Ki D3 values are compared, which is smaller: that of a or that of b ? Respond using the label that marks the chosen record.
**Result** a
(a: 36, b: 86)
